- system-tested: UniProt P09874
- Sequence (P09874 whole entry): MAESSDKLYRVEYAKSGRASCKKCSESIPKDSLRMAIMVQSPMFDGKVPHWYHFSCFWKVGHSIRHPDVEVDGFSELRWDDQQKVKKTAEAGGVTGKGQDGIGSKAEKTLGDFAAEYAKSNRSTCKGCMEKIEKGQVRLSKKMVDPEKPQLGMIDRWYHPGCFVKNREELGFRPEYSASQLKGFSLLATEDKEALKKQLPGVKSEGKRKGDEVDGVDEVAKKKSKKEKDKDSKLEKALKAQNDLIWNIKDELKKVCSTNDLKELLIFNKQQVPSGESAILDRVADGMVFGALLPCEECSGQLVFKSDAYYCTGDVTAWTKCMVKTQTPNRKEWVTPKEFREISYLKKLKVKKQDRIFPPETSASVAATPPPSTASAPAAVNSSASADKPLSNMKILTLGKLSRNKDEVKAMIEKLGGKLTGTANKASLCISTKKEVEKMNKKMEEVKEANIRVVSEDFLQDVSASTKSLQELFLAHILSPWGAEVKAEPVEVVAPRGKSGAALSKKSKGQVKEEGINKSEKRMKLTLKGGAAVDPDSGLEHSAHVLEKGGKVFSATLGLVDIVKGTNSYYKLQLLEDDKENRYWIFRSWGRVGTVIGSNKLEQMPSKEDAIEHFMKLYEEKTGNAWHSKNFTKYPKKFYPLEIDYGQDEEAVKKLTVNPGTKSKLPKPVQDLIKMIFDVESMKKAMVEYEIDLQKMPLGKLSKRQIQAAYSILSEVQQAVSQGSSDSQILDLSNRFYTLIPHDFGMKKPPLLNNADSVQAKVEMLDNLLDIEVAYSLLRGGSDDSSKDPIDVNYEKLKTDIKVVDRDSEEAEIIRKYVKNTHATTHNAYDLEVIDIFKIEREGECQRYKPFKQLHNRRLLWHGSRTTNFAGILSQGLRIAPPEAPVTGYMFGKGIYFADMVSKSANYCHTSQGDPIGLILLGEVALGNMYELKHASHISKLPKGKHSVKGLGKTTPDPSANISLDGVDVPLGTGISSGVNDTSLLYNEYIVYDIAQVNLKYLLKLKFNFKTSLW
measure-name: pIC50
Friendly reminder that pIC50 comes from taking -log10 of the concentration in mol/L.

Problem: For UniProt P09874, give pIC50 of the listed compound: CNC(=O)c1ccc(N2CCN(Cc3cc(F)c4c5c(c(=O)[nH]c4c3)COC5)CC2)c(F)n1 [US11795173, Comp. Ex. 3]
Result: 8.37

----------
- system-tested: Poly [ADP-ribose] polymerase 2 (Homo sapiens)
- Sequence (Q9UGN5 whole entry): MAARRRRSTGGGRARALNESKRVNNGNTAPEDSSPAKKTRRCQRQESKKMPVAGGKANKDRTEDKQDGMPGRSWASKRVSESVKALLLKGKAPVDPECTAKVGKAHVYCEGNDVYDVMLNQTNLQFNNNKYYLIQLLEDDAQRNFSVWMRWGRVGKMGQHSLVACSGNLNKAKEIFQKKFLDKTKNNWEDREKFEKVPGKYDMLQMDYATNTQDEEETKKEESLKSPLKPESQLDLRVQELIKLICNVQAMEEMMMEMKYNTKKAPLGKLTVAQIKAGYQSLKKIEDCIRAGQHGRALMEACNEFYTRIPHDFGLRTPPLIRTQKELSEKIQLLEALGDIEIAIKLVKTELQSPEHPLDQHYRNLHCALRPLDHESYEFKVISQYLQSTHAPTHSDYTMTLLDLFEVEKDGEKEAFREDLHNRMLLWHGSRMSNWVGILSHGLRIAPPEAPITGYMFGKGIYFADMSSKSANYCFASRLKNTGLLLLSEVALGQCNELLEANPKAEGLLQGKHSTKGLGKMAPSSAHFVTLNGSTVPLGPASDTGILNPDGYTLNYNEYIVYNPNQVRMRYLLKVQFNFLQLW
measure-name: IC50

Problem: For Poly [ADP-ribose] polymerase 2 (Homo sapiens), give IC50 of the listed compound: CNC(=O)c1ccc(N2CCN(Cc3ccc4c5c(c(=O)[nH]c4c3)CCO5)CC2)c(Cl)n1 [US11795173, Comp. Ex. 2]
Result: > 100 µM
